FYI, the data here is from PubChem BioAssay (NCI).

# Tested on: CCRF-CEM leukemia
# Assay Remarks: NCI tumour cell line growth inhibition, 48 h
Measurement Kind: TGI (µM)
Provide the reading as a plain figure in µM.

// Cc1cc2nc3c4ccc(Br)cc4n(CCN(C)C)c3nc2cc1C : TGI value = 10.5

// CC(=O)c1c2c(cc3c1CC1(C3)Cc3cc4c(c(C(=O)O)c3C1)CCC4)CCC2 (stereo not given) : TGI value = 69.7

* * *

# Tested on: MALME-3M melanoma
# Assay Remarks: NCI tumour cell line growth inhibition, 48 h
Kindly supply the reported TGI values for the records listed here.

// O=C1N(c2ccccc2)C(=S)/C(=C/c2ccc(Cl)cc2)N1c1ccc(Cl)cc1 : TGI value = 63.9 µM

// O=C1CC(c2ccccc2)S(=O)c2ccccc2N1 (configuration not stated) : TGI value = > 100 µM

// C=CC(C)(O)CC/C=C(\CO)C(=O)OC1C(C)OC(O[C@](C)(C=C)CC/C=C(\CO)C(=O)O[C@H]2C[C@@]3(C(=O)OC4OC(CO)C(O)C(O)C4OC4OC(C)C(OC5OC(CO)C(O)C5O)C(OC5OC(CO)C(O)C(O)C5O)C4O)C(CC2(C)C)C2=CCC4[C@@]5(C)CC[C@H](OC6OC(COC7OC(C)C(O)C(O)C7OC7OCC(O)C(O)C7O)C(O)C(O)C6NC(C)=O)C(C)(C)C5CC[C@@]4(C)[C@]2(C)C[C@H]3O)C(O)C1O (some centres not stated) : TGI value = 1.01 µM

// CCCCC[C@H]1CCCCCCCCCC(=O)OC2C(O[C@@H]3OC(C)[C@H](OC(=O)[C@@H](C)CC)C(O[C@@H]4OC(C)[C@H](O)C(O)[C@@H]4O)[C@@H]3OC(=O)[C@H](C)CC)[C@H](OC3C(O)[C@@H](O)C(C)O[C@H]3O1)OC(CO)[C@H]2O (some centres not stated) : TGI value = 28.8 µM

// O=C(/C=C/c1ccco1)c1ccc(Nc2nc(Nc3ccc(F)cc3)nc(Nc3ccc(F)cc3)n2)cc1 : TGI value = > 100 µM

// CC(N1CCOCC1)C(O)(c1ccccc1)c1ccccn1 (configuration not stated) : TGI value = > 100 µM

// COc1ccc(C)cc1C1CCC(=O)O1 (configuration not stated) : TGI value = > 100 µM

// CCOC(=O)C(C(=O)COC(C)(C)C)[C@@H]1C=C[C@H](OC(C)=O)C1 (some centres not stated) : TGI value = > 100 µM

// CCc1cc(Cc2ccc(C)c(NC(=O)C(=O)C3C(=O)NC(=O)NC3=O)c2CC)cc(C)c1NC(=O)C(=O)C1C(=O)NC(=O)NC1=O : TGI value = > 100 µM

// CC(=O)[C-](C(C)=O)c1ccccc1.CC(=O)[C-](C(C)=O)c1ccccc1.CC(=O)[C-](C(C)=O)c1ccccc1.[Cl-].[Zr+4] : TGI value = > 100 µM

// C=C1C(=O)OC2C3OC(C)(CCC(O)C3COC(C)=O)CC(OC(=O)/C(=C/C)COC(C)=O)C12 (configuration not stated) : TGI value = 0.0763 µM

// C=C(C)[C@@H]1CC[C@]2(CO)CC[C@]3(C)[C@H](CC[C@@H]4[C@@]5(C)CC[C@H](NCO)C(C)(C)[C@@H]5CC[C@]43C)[C@@H]12 : TGI value = 1.53 µM

// CCCCCCCCCCCCCCCC1(OC)C[N+](C)(C)CCO1 (configuration not stated) : TGI value = 4.7 µM

// Cc1ccc(NC(=O)CC(=O)n2nc(C)c(N=Nc3cccc(C)c3)c2C)cc1 : TGI value = > 100 µM

// S=c1c2ccccc2c(=S)n2n1CC=CC2 : TGI value = > 100 µM

// CC/C(N)=N\NC(=O)OC(C)(C)C : TGI value = > 100 µM

// Nc1c(C(=O)Nc2cccc3ccccc23)sc2nc3c(cc12)C(=O)CCC3 : TGI value = 54.7 µM

// CC(C)=NOC(=O)Nc1cccc2c1OCO2 : TGI value = > 100 µM

// CCCCCCCCCCCCO[P+](=O)OCCCCCCCCCCCC : TGI value = > 100 µM

// O=S(=O)(O)c1cc(S(=O)(=O)O)c2c(N=Nc3ccc(N=Nc4ccccc4)cc3)c(O)ccc2c1 : TGI value = > 100 µM

// C=C1CC2[C@H](C)C(=O)CCC2(C)C2=C1C1CCC(C(C)CCC(=C)C(C)C(=O)O)C1(C)CC2=O (some centres not stated) : TGI value = > 100 µM

// O=S(=O)(O)SCCNCCCCCC1CCCCC1 : TGI value = 36.2 µM

// O=C(Nc1ccc(Cl)cc1)c1cc(S(=O)(=O)Nc2n[nH]c(=O)n2-c2ccccc2)c(S)cc1Cl : TGI value = > 100 µM

// O=C(C=C=Nc1ccccc1)C(=O)N=C=Cc1ccccc1 : TGI value = 5.33 µM

// c1ccc(-c2nnc3nn4c(-c5ccccc5)cnnc4c3c2-c2ccccc2)cc1 : TGI value = > 100 µM

// Cc1cc(=O)oc2c(CNC(CC(C)C)C(=O)O)c(O)ccc12 (configuration not stated) : TGI value = > 100 µM

// O=c1[nH]nc(-c2ccccc2)n1-n1cnnc1 : TGI value = > 100 µM

// COc1ccc(C(=O)c2cc3c(N)c(C(=O)Nc4cccc(OC)c4)sc3nc2C)cc1 : TGI value = > 100 µM

// Cc1c(O)c(=O)ccn1CCc1ccc(O)cc1 : TGI value = 65.8 µM

// CNC(c1ccncc1)C(NC)c1ccncc1 (configuration not stated) : TGI value = > 100 µM

// C#CCOCn1cnc2ncnc(N)c21 : TGI value = > 100 µM

// CC(C)(C)Sc1nnc(SC(C)(C)C)c2c(=O)[nH]nc(SC(C)(C)C)c12 : TGI value = 26.2 µM

// O=C(NCCCCCN1CCC2(CCCCC2)CC1)C(C1CCCCC1)C1CCCCC1 : TGI value = 3.26 µM

// O=S1(=O)c2ccccc2N=C(c2ccccc2Cl)CC1c1ccc(F)cc1 (configuration not stated) : TGI value = 36.8 µM

// CC(C)c1ccc(/C=C2\CSCC3=C2N=C2SCC(=O)N2C3c2ccc(C(C)C)cc2)cc1 (configuration not stated) : TGI value = > 100 µM

// O=C1C(c2c(O)[nH]c3ccc(S(=O)(=O)NCCO)cc23)=Nc2ccccc21 : TGI value = > 100 µM

// COC(=O)C(C(=O)C(N)=O)c1csc(-n2nc(-c3ccccc3)cc2-c2ccccc2)n1 (configuration not stated) : TGI value = > 31.6 µM

* * *

# Test system: HOP-92 NSCLC
# Assay Remarks: NCI tumour cell line growth inhibition, 48 h
Kindly supply the reported GI50 values for the records listed here.

// O=C(c1ccc2ccccc2c1)c1c(C(F)(F)F)n([O-])c2ccc(F)cc2[n+]1=O : GI50 value = 1.21 µM

// CC(/C=N/N=C(N)N)=N\N=C(N)N : GI50 value = 54.4 µM

// Oc1ccc(Cl)cc1/C=N\NC(=S)N/N=C/c1cc(Cl)ccc1O : GI50 value = 1.92 µM

* * *

# Test system: CCRF-CEM leukemia
# Assay Remarks: NCI tumour cell line growth inhibition, 48 h; in the data active = GI50 below about 0.43 µM; inactive = the rest
Where a SMILES comes first, the peptide text is derived from it. The star is where a group is joined. Trt = c1ccc(C(c2ccccc2)(c2ccccc2)*)cc1; Cbz = O=C(OCc1ccccc1)*
Response enum: true = active, false = inactive

Incoming: Which result was noted for this compound in the test: COc1ccc(C2=Nc3c/c(=C\c4c(O)[nH]c5cc(Cl)ccc45)ccc3=N2)cc1
Outgoing: false

Incoming: Which result was noted for this compound in the test: COC(=O)C(CSC(c1ccccc1)(c1ccccc1)c1ccccc1)NC(=O)C(CC(N)=O)NC(=O)OCc1ccccc1 (stereo not drawn) (Cbz-Asn-Cys(Trt)-OMe; configuration not given here)
Outgoing: false

Incoming: Which result was noted for this compound in the test: O=C(Nc1cccc(C(F)(F)F)c1)c1cc2ccccc2cc1O
Outgoing: false

Incoming: Which result was noted for this compound in the test: CCCN1CCC=C(c2ccc(Nc3nc(Nc4ccccc4C(N)=O)c4cc[nH]c4n3)c(C)c2)C1
Outgoing: false

Incoming: Which result was noted for this compound in the test: Cc1cc(Nc2nc(-c3ccncc3)nc3ccccc23)n[nH]1
Outgoing: false

Incoming: Which result was noted for this compound in the test: O=Cc1ccc(N2CCN(c3ccc(C=O)cc3)CC2)cc1
Outgoing: false

Incoming: Which result was noted for this compound in the test: Nc1nc(N)c2c(n1)NC(c1sc(Cl)nc1Cl)CC(c1ccc3c(c1)OCO3)=N2 (centres undefined)
Outgoing: false

Incoming: Which result was noted for this compound in the test: O=C(Nc1nc2ccccc2s1)c1cc(-c2ccc(F)cc2)n2nc(-c3ccccc3)cc2n1
Outgoing: false

Incoming: Which result was noted for this compound in the test: COc1cccc2c1cc1c3c(cc4c(c32)OCO4)C(=O)N1
Outgoing: false

Incoming: Which result was noted for this compound in the test: O=C(c1ccc2ccccc2c1)c1c(C(F)(F)F)n([O-])c2ccc(F)cc2[n+]1=O
Outgoing: false

Incoming: Which result was noted for this compound in the test: O=C(CCCCCCCCC(=O)N/N=C\c1cc(Cl)ccc1O)N/N=C\c1cc(Cl)ccc1O
Outgoing: true

Incoming: Which result was noted for this compound in the test: COc1ccc2c(c1)/C(=N/OC(C)=O)c1c-2cnc2ccccc12
Outgoing: false

Incoming: Which result was noted for this compound in the test: CCN(CC)Cc1cc(Nc2c3ccccc3nc3cc(Cl)ccc23)ccc1O
Outgoing: false

Incoming: Which result was noted for this compound in the test: O=C(CCC1CCCCN1)Nc1ccc2c(c1)C(=O)c1ccc(NC(=O)CCN3CCCCC3)cc1C2=O (centres undefined)
Outgoing: false
